# TARGET_DESC: Gag-Pol polyprotein (Human immunodeficiency virus type 1 group M subtype B (isolate HXB2))
# ASSAY_COMMENT: HIV-1 Reverse Transcriptase Inhibitory Assay
# TEST_CONTEXT: pH 7.8; 25 °C
pIC50: −log10 of the molar value.
VALUE_KIND: pIC50

COMPOUND	TARGET_DESC	VALUE_KIND	READOUT_VALUE
COc1cc(-c2cc(Cn3cnc(C(F)(F)F)c(Oc4cc(Cl)cc(C#N)c4)c3=O)n[nH]c2=O)ccn1 [US9718819, 79]	Gag-Pol polyprotein (Human immunodeficiency virus type 1 group M subtype B (isolate HXB2))	pIC50	8.22
Cn1[nH]c(=O)c(Cn2cnc(C(F)(F)F)c(Oc3cc(Cl)cc(C#N)c3)c2=O)cc1=O [US9718819, 127]	Gag-Pol polyprotein (Human immunodeficiency virus type 1 group M subtype B (isolate HXB2))	pIC50	6.36
Cc1cncc(-c2cc(Cn3cnc(C(F)(F)F)c(Oc4cc(Cl)cc(C#N)c4)c3=O)n[nH]c2=O)c1 [US9718819, 80]	Gag-Pol polyprotein (Human immunodeficiency virus type 1 group M subtype B (isolate HXB2))	pIC50	7.85
N#Cc1cc(Cl)cc(Oc2c(C(F)(F)F)ncn(Cc3cc(-c4cn[nH]c4)n[nH]c3=O)c2=O)c1 [US9718819, 118]	Gag-Pol polyprotein (Human immunodeficiency virus type 1 group M subtype B (isolate HXB2))	pIC50	8.15
